Taken from patent US20130303507A1.

targetOrSystem: Cdk9/cyclinT1 (Homo sapiens)
Sequence (P50750 whole entry): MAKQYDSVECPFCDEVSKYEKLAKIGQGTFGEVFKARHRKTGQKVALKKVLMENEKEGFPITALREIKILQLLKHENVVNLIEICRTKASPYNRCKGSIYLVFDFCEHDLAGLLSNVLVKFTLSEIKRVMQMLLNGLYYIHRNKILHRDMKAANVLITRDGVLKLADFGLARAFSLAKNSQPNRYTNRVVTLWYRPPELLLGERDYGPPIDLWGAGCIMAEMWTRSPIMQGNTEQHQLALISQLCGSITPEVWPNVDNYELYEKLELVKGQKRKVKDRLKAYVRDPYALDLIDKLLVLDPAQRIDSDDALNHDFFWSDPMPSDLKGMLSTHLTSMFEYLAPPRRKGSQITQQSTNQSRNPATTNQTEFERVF
Sequence (O60563 whole entry partner): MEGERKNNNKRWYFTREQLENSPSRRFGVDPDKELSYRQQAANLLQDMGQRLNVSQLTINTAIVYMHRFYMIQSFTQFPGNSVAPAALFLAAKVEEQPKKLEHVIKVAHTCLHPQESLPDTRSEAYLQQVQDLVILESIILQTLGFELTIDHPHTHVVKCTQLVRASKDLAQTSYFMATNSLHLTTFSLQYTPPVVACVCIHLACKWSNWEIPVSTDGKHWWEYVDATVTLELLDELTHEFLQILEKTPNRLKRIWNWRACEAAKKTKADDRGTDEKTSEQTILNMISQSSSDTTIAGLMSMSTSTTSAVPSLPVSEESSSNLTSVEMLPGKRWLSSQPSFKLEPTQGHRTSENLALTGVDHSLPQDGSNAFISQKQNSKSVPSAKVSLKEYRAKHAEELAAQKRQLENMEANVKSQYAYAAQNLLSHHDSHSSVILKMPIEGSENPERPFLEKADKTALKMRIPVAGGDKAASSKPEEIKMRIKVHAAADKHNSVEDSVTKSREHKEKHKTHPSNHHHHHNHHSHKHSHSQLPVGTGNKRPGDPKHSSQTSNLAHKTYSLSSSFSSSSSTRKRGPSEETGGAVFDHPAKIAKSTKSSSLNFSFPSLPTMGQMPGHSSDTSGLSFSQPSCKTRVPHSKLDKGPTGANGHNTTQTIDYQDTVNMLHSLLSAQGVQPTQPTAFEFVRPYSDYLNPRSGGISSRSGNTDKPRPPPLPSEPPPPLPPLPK
protocolNotes: Cdk9/cyclinT1 Alpha Screen protocol
Format: biochemical
Set-up: Full length wild type Cdk9/cyclin T1 is purchased from Invitrogen; purchased Invitrogen PV4131
measurementContext: neutral species; individual determinations; read-out: CDK9_cyclinT1_AS2_IC50
Protocol: Cdk9/cyclinT1 Alpha Screen Protocol Full length wild type Cdk9/cyclin T1 is purchased from Invitrogen, cat#PV4131. […] The cdk7tide peptide substrate, biotin-[…] -OH, is a custom synthesis purchased from the Tufts University Core Facility. The final concentration of cdk7tide peptide substrate is 200 nM. […] When the donor and acceptor beads are in close proximity, the reactive oxygen generated by the irradiation of the donor beads initiates a luminescence/fluorescence cascade in the acceptor beads. […]
readout: IC50 (nM)
The response must be a number in nM with no trailing unit.

| compound | IC50 / nM |
| --- | --- |
| N#CC1(CNc2cccc(-c3cc(N[C@H]4CC[C@H](N5CCC6(COC6)C5)CC4)ncc3Cl)n2)CCOCC1 | 1.34 |
| CC(C)(O)CN[C@H]1CC[C@H](Nc2cc(-c3cncc(OCC4(C#N)CCOCC4)n3)c(Cl)cn2)CC1 | 0.85 |
| CC(C)(C)OCCN[C@H]1CC[C@H](Nc2cc(-c3cccc(NCC4(C#N)CCOCC4)n3)c(Cl)cn2)CC1 | 0.217 |
| COC[C@H](C)N[C@H]1CC[C@@H](Nc2cc(-c3cccc(NCC4(C#N)CCOCC4)n3)c(Cl)cn2)CC1 | 8.1 |
| N#CC1(CNc2cccc(-c3cc(N[C@H]4CC[C@H](NCC(O)CF)CC4)ncc3Cl)n2)CCOCC1 (some centres unmarked) | 0.398 |

Query "C[C@@](O)(CN[C@H]1CC[C@H](Nc2cc(-c3cncc(OCC4(C#N)CCOCC4)n3)c(Cl)cn2)CC1)C(F)(F)F" yields IC50 of 1

Query "COC[C@H](C)N[C@H]1CC[C@H](Nc2cc(-c3cccc(NCC4(C#N)CC4)n3)c(F)cn2)CC1" yields IC50 of 1
